Attribution: paper PMC10999543

Tested on: HeLa cells
experiment: Compound screen by flow cytometry: HeLa cell count as surrogate readout of cell viability (z-scoreHeLa)
Format: cell-based, human
measurementContext: compound screen, HeLa cell count, replicate 1
Returns 1.0 if the recorded z-scoreHeLa rep 1 is greater than or equal to -1, and 0.0 otherwise.

>>> df
                                   compound  classassignment
0  O=C(Nc1ccc(Oc2ccc3nc(NC(=O)c4ccco4)[nH]c3c2)cc1)Nc1cc(C(F)(F)F)ccc1F [GW683134A]              1.0
1  Nc1ncnc2occ(-c3ccc(NC(=O)Nc4cc(C(F)(F)F)ccc4F)cc3)c12 [GW770249X]              0.0
2  CS(=O)(=O)CCNCc1ccc(-c2ccc3ncnc(Nc4ccc(OCc5ccccc5)c(Br)c4)c3c2)o1 [GW580496A]              1.0
3  Nc1nccc2scc(-c3ccc4c(c3)CCN4C(=O)Cc3ccccc3)c12 [GSK2576924A]              1.0
4  CCn1c(-c2nonc2N)nc2c(C#CC(C)(C)O)nc(OC[C@H](N)c3ccccc3)cc21 [GSK943949A]              0.0
5  Cc1cccc(-c2nc(Nc3ccc4[nH]ncc4c3)c3ccccc3n2)n1 [GW857175X]              0.0

----------
Tested on: HeLa cells
experiment: Compound screen by flow cytometry: HeLa cell count as surrogate readout of cell viability (z-scoreHeLa)
Assay type: cell-based, human
measurementContext: PKIS compounds raw data; replicate 1; HeLa cell count
Protocol: The cells were resuspended in cell culture medium without antibiotics, seeded with 10,000 cells/well into Costar flat-bottom 96-well plates (Corning, Amsterdam, the Netherlands), and were incubated overnight at 37°C/5% CO2. […] The calculated mean MOI throughout all experiments was 6.8 ± 4.6 (mean ± SD). […] HeLa cells were harvested by trypsinization and fixed with 1% paraformaldehyde. Samples were measured on a FACSLyric with HTS extension (BD Biosciences). […]
Collected cell count rep 1 values appear next to each entry.
experimentalReadout: cell count rep 1

                                    compound  targetofassay  measuredvalue
 0  c1ccc(-c2cc3ccncc3cc2OC2CCNCC2)cc1 [GSK1122999D]     HeLa cells           8742
 1  COc1ccc(Nc2nccc(N3CCC(NC(=O)Nc4cccc(OC)c4)C3)n2)cc1 (stereo not shown) [GSK1379742A]     HeLa cells           8641
 2  CC(C)c1nc(-c2cccc(NS(=O)(=O)c3c(F)cccc3F)c2F)c(-c2ccnc(Nc3ccc(N4CCOCC4)nc3)n2)s1 [GSK2008607A]     HeLa cells           3519
 3  Cc1ccc(NC(=O)c2ccnc(N3CCN(C)CC3)c2)cc1-c1ccc(C(=O)NCC2CC2)cc1 [GW775604X]     HeLa cells           5307
 4  CCn1cc(-c2ccnc3[nH]ccc23)c(-c2cccc(NC(=O)Nc3ccc(OCc4ccccc4)cc3)c2)n1 [GSK718429A]     HeLa cells           2721
 5  CN(C)c1cc2c(Nc3ccc4c(cnn4Cc4ccccc4)c3)ncnc2cn1 [GW282974X]     HeLa cells           5822
 6  COc1ccc(CNC(=O)NC2CCN(c3ccnc(Nc4ccc(OC)cc4)n3)C2)cc1 (stereo not shown) [GSK1379727A]     HeLa cells           7697
 7  Fc1cccc(COc2ccc(Nc3ncnc4sc(-c5ccc[nH]5)cc34)cc2Cl)c1 [GW707818B]     HeLa cells           5915
 8  CS(=O)(=O)Nc1ccc(N/C=C2\C(=O)Nc3ccccc32)cc1 [GW278681X]     HeLa cells           4258
 9  COc1ccc2ncnc(Nc3ccc(OCc4ccccc4)cc3)c2c1 [GI261520A]     HeLa cells           6115
10      CN1C(=O)C(Nc2ccccc2)=C(c2ccccc2)C1=O     HeLa cells           5536
11  CC(C)c1nc(-c2cccc(NS(=O)(=O)c3ccccc3)c2)c(-c2ccnc(Nc3ccc4c(c3)CN(C)CC4)n2)s1 [GSK1649598A]     HeLa cells           4018
12  Cc1n[nH]c2ccc(-c3cc(OC[C@@H](N)Cc4ccccc4)cnc3-c3ccoc3)cc12 [GSK507358A]     HeLa cells           7770
13  O=C(NC1CCN(c2ccnc(Nc3ccc(F)cc3)n2)C1)c1cc2ccccc2s1 (stereo not shown) [GSK1379716A]     HeLa cells           5074
14  O=S(=O)(CCNCc1ccc(-c2ccc3ncnc(Nc4ccc(OCc5cccc(F)c5)c(Cl)c4)c3c2)o1)c1ccccc1 [GW633459A]     HeLa cells           5085
15  CN(C)S(=O)(=O)c1cc(-c2ccc3nccc(-c4cccc(S(N)(=O)=O)c4)c3c2)cnc1N [GSK1669921A]     HeLa cells           4231

----------
Tested on: HeLa cells
experiment: Compound screen by flow cytometry: HeLa cell count as surrogate readout of cell viability (z-scoreHeLa)
Type: cell-based, human
measurementContext: compound screen, HeLa cell count, replicate 3
experimentalReadout: z-scoreHeLa rep 3

                                    molecule  experimentalreadout  measuredvalue
 0  COc1ccc(Nc2nccc(-c3ccc(NC(=O)c4cc5cc(F)ccc5[nH]4)cc3)n2)cc1 [GSK1229496A]    z-scoreHeLa rep 3          -0.13
 1  Cc1cccc2c1NC(=O)C2=NNc1ccc(S(N)(=O)=O)cc1 [GW282536X]    z-scoreHeLa rep 3          -2.65
 2  Nc1ncc(-c2cccc(S(N)(=O)=O)c2)c2scc(-c3ccc(F)c(Cl)c3)c12 [GW856804X]    z-scoreHeLa rep 3           0.43
 3  Nc1nccc2scc(-c3ccc4c(c3)CCN4C(=O)Cc3ccccc3)c12 [GSK2576924A]    z-scoreHeLa rep 3          -1.13
 4  Cn1cc(-c2cnc(N)c3c(-c4ccc5c(c4)CCN5C(=O)Cc4ccccc4)csc23)cn1 [GSK2593074A]    z-scoreHeLa rep 3          -2.56
 5  Nc1nonc1-c1nc2cnccc2n1C1CCCCC1 [SB-734117]    z-scoreHeLa rep 3          -0.92
 6  NCCCC(NC(=O)c1cc(Br)c(-c2ccnc3[nH]ccc23)s1)c1ccccc1 (stereo not drawn) [GSK1287544A]    z-scoreHeLa rep 3           1.59
 7  CN(C)CCOc1ccc(-c2cc(-c3ccc(Cl)c(O)c3)c(-c3ccncc3)[nH]2)cc1.Cl.Cl [SB-684387-B]    z-scoreHeLa rep 3           1.59
 8  CNc1nc(-c2ccc3c(N)n[nH]c3c2)cc(N2C[C@@H](C(=O)NC3CCCCC3)OC[C@H]2C)n1 [GSK2375584A]    z-scoreHeLa rep 3           0.41
 9  CCn1cc(-c2ccnc3[nH]ccc23)c(-c2cccc(NC(=O)Nc3ccc(OCc4ccccc4)cc3)c2)n1 [GSK718429A]    z-scoreHeLa rep 3          -0.96
10  O=S(=O)(CCOCc1ccc(-c2ccc3ncnc(Nc4ccc(OCc5cccc(F)c5)c(Cl)c4)c3c2)o1)c1ccccc1 [GW615311X]    z-scoreHeLa rep 3           0.47
11  COc1ccc(Nc2nccc(NCCNC(=O)Nc3ccccc3F)n2)cc1 [GSK1379901A]    z-scoreHeLa rep 3          -0.32
